B1: tRNA (parent)
chain: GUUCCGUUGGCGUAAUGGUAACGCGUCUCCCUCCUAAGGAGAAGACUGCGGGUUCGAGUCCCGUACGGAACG

Variants of: B1
method_notes: yeast fitness relative to wild type (ratio to wild type); higher = fitter; tRNA-Arg(CCU), competitive growth, 37 C, YPD
This sample holds only a part of the variants without activity.
recorded_endpoint: yeast fitness
Numbers only.

>>> print(df.to_string())
     changes  value_reported
0  A37G A42U           0.787

Pending variant:
### Prompt I am curious: what yeast fitness value has been reported for C49G A57C A70G ?
### Response 0.552
